MEASUREMENT PROTOCOL: Hepatic extraction ratio in mouse liver microsomes at 1 uM by LC-MS/MS analysis
Format: ADME, Microsome
CONDITION SUMMARY: read-out: ERH
MEASUREMENT NAME: hepatic extraction ratio at 1 µM

{"columns": ["QUERY SMILES", "MEASUREMENT NAME", "VALUE MEASURED"],
 "data": [
  ["CCn1cc(C(=O)NCCOC)c(=O)c2cc(/C(C)=N/NC(=O)c3ccncc3)ccc21", "hepatic extraction ratio at 1 µM", "< 0.49"]
]}

---

MEASUREMENT PROTOCOL: Half life in pooled human liver microsomes at 1 uM by LC-MS/MS analysis
Assay type: ADME, Microsome

{"columns": ["QUERY SMILES", "half-life at 1 µM"],
 "data": [
  ["CCn1cc(C(=O)NCCOC)c(=O)c2cc(/C(C)=N/NC(=O)c3ccncc3)ccc21", "> 2.5 h"]
]}
